Type: in vivo, rat
experimental-parameters: PM/P (polyI:C+maoto vs polyI:C), 4h
Below, each entry is listed alongside its reported log2FC of plasma level.
Keep the answer to the number alone.

{"compound": "CC/C=C\\CC(O)/C=C/C=C\\C/C=C\\C/C=C\\C/C=C\\CCC(=O)O (stereo not drawn)", "experimental-value": -0.79}
{"compound": "CCC(O)C(O)C/C=C\\C/C=C\\C/C=C\\C/C=C\\CCCC(=O)O (stereo not drawn)", "experimental-value": -0.38}
{"compound": "CCCCCC(=O)CC[C@@H]1[C@@H](C/C=C\\CCCC(=O)O)[C@@H](O)C[C@H]1O [13,14-dihydro-15-keto-PGF2α]", "experimental-value": 0.38}
{"compound": "CC(O)CCC/C=C\\C/C=C\\C/C=C\\C/C=C\\CCCC(=O)O (stereo not drawn)", "experimental-value": 0.72}
{"compound": "CCCCC/C=C\\C/C=C\\CC1OC1C/C=C\\CCCC(=O)O (stereo not drawn)", "experimental-value": -0.66}

Reported log2FC of plasma level of O=C(O)CCC/C=C\C/C=C\C/C=C\C/C=C\CCCCC(=O)O : 0.00

Reported log2FC of plasma level of CCCCCC(=O)/C=C/[C@H]1[C@H](O)CC(=O)[C@@H]1C/C=C\CCCC(=O)O : -1.08

Reported log2FC of plasma level of CC/C=C\C/C=C\C/C=C\C/C=C\C=C\C(O)C/C=C\CCC(=O)O (stereo not drawn) : -0.39

Reported log2FC of plasma level of CCCCC/C=C\C/C=C\CC(O)/C=C/C=C\CCCC(=O)O (stereo not drawn) : -1.09

Reported log2FC of plasma level of CCCCC/C=C\C\C=C/C=C/C=C/[C@@H](SC[C@H](N)C(=O)O)[C@@H](O)CCCC(=O)O : -0.51

----------
Assay type: in vivo, rat
experimental-parameters: PM/P (polyI:C+maoto vs polyI:C), 4h
recorded-metric: log2FC of plasma level

Some molecules with known log2FC of plasma level results, for comparison:
{"molecule": "CCCCC[C@H](O)/C=C/[C@@H]1[C@@H](CC(=O)CCCCC(=O)O)[C@@H](O)C[C@H]1O", "log2FC of plasma level": 0.01}
{"molecule": "CC/C=C\\C/C=C\\C/C=C\\C/C=C\\CC(O)/C=C/C=C\\CCC(=O)O (centres unmarked)", "log2FC of plasma level": -0.44}
{"molecule": "CCCCC/C=C\\C/C=C\\C/C=C\\C=C\\[C@@H](O)CCCC(=O)O", "log2FC of plasma level": -0.73}
{"molecule": "CCCCCC(=O)CCC1C(O)CC(O)C1CCC(=O)O (stereo not drawn) [13,14-dihydro-15-keto-tetranor-PGF1β]", "log2FC of plasma level": -0.01}

Reported log2FC of plasma level of CCCCC/C=C\CC(O)C(O)C/C=C\C/C=C\CCCC(=O)O (centres unmarked) : -0.31

Reported log2FC of plasma level of CC/C=C\C/C=C\C/C=C\C/C=C\C/C=C\CCCC(=O)O : 0.03

Reported log2FC of plasma level of CCCCC/C=C\C/C=C\C/C=C\CC(O)C(O)CCCC(=O)O (centres unmarked) : -0.71

Reported log2FC of plasma level of CCCCC/C=C\C/C=C\C/C=C\C/C=C\CCCC(=O)O : -0.04
